Biological target: human recombinant 5-HT2C receptor (Homo sapiens (Human), UniProt P28335)
Sequence (P28335 whole entry, looked up): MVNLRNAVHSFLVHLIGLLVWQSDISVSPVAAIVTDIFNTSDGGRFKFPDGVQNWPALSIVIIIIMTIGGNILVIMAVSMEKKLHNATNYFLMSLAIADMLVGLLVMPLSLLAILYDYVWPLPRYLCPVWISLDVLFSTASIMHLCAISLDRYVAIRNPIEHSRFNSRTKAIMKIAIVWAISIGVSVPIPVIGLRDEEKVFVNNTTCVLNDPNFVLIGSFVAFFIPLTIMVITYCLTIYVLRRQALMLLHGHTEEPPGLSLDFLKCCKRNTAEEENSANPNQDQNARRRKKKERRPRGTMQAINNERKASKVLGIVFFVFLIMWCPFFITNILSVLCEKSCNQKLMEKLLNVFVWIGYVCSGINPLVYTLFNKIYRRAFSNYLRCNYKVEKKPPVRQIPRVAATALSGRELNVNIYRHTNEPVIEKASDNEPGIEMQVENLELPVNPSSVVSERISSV
Conditions: read-out: Binding affinity to serotonin receptor 5-HT2C: IC50
pIC50: −log10 of the molar value. Counter-ions that a name gives are not always drawn.

# Molecule, Target of assay, pIC50
rows = [
    ("COc1ccc(-n2cc(C(=O)NCCCN3CCN(c4cccc(C)c4C)CC3)nc2-c2ccccc2)cc1 [Example 134, dihydrochloride]", "human recombinant 5-HT2C receptor (Homo sapiens (Human), UniProt P28335)", 7.00),
    ("Cc1cccc(N2CCN(CCNC(=O)c3nc(C)n(-c4ccc(F)cc4)c3C)CC2)c1C [Example 114, dihydrochloride]", "human recombinant 5-HT2C receptor (Homo sapiens (Human), UniProt P28335)", 7.34),
    ("COc1ccccc1-n1c(C)nc(C(=O)NCC(O)CN2CCN(c3cccc(C)c3C)CC2)c1C (stereo not shown) [Example 100, dihydrochloride]", "human recombinant 5-HT2C receptor (Homo sapiens (Human), UniProt P28335)", 6.68),
    ("Cc1ccc(-n2c(C)nc(C(=O)NCC(O)CN3CCN(c4cccc(C)c4C)CC3)c2C)cc1 (stereo not shown) [Example 148, dihydrochloride]", "human recombinant 5-HT2C receptor (Homo sapiens (Human), UniProt P28335)", 6.15),
    ("Cc1cccc(N2CCN(CC(O)CNC(=O)c3nc(C)n(CC(C)C)c3C)CC2)c1C (stereo not shown) [Example 94, dihydrochloride]", "human recombinant 5-HT2C receptor (Homo sapiens (Human), UniProt P28335)", 6.23),
    ("Cc1cccc(N2CCN(CCCNC(=O)c3nc(C)n(CC(C)C)c3C)CC2)c1C [Example 92, dihydrochloride]", "human recombinant 5-HT2C receptor (Homo sapiens (Human), UniProt P28335)", 4.99),
    ("CCCc1nc(C(=O)NCC(O)CN2CCN(c3cccc(C)c3C)CC2)cn1-c1ccccc1 (stereo not shown) [Example 121, dihydrochloride]", "human recombinant 5-HT2C receptor (Homo sapiens (Human), UniProt P28335)", 6.20),
]
